Collected AC50 values appear next to each entry.
# test target: human PAH with the R408W mutation (A375 R408W cells) (Homo sapiens, UniProt P00439, R408W)
# Construct: expressed in transfected cells
# Sequence (P00439 whole entry R408W): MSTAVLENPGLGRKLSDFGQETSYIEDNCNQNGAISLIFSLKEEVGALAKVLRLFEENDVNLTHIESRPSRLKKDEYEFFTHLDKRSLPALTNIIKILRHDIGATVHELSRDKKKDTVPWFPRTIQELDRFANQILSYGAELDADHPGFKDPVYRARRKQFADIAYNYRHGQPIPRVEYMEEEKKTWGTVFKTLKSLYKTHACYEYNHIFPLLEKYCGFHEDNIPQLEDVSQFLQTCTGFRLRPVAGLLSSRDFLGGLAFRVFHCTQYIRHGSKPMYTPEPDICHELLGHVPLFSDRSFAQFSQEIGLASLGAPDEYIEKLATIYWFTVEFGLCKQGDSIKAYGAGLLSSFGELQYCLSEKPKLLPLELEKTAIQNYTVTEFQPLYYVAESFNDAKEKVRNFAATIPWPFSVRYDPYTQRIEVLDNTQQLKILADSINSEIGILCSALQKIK
# assay summary: Cell Based Phenylalanine Flux Assay
# condition label: A375 cells expressing R408W PAH; 24 hrs with compound, then 20 μM sepiapterin and 800 μM 13C9,15N-Phenylalanine for 4 hours; 13C-Tyrosine by LC-MS; average where tested multiple times

compound: Cn1ncc(C(=O)N2CCc3[nH]cnc3C2c2nc3cc(F)ccc3o2)c1C(F)F (centres unmarked)
AC50: ≥ 5 µM
--
compound: O=C(c1cn[nH]c1C(F)F)N1CCc2[nH]cnc2C1c1nc2cc(F)ccc2o1 (centres unmarked)
AC50: 1 to 5 µM
--
compound: Cn1cnnc1C(=O)N1CCc2[nH]cnc2C1c1nc2ccc(F)cc2o1 (centres unmarked)
AC50: ≥ 5 µM
--
compound: O=C(c1nnc(-c2c[nH]nc2C(F)(F)F)o1)N1CCc2[nH]cnc2C1c1nc2cc(F)ccc2o1 (centres unmarked)
AC50: ≥ 5 µM
--
compound: Fc1ccc2oc(C3c4nc[nH]c4CCN3Cc3ocnc3C(F)F)nc2c1 (centres unmarked)
AC50: ≥ 5 µM
--
compound: COC(=O)N1CC(C(=O)N2CCc3[nH]cnc3C2c2nc3cc(F)ccc3o2)C1 (centres unmarked)
AC50: 1 to 5 µM
--
compound: Cn1nc(C(F)(F)F)nc1C(=O)N1CCc2[nH]cnc2C1c1nc2ccc(F)cc2o1 (centres unmarked)
AC50: 1 to 5 µM
--
compound: O=C(c1cn[nH]c1Cl)N1CCc2[nH]cnc2C1c1nc2cc(F)ccc2o1 (centres unmarked)
AC50: 1 to 5 µM
--
compound: O=C(c1cncs1)N1CCc2[nH]cnc2C1c1nc2ccc(Br)cc2o1 (centres unmarked)
AC50: ≥ 5 µM
--
compound: Cc1nc(C(C)(C)O)oc1C(=O)N1CCc2[nH]cnc2C1c1nc2cc(F)ccc2o1 (centres unmarked)
AC50: ≥ 5 µM
--
compound: O=C(c1cnn2cc(CN3CCC(F)(F)C3)ccc12)N1CCc2[nH]cnc2C1c1nc2cc(F)ccc2o1 (centres unmarked)
AC50: ≥ 5 µM
--
compound: COC(=O)Nc1ccc2c(C(=O)N3CCc4[nH]cnc4C3c3nc4cc(F)ccc4o3)cnn2c1 (centres unmarked)
AC50: ≥ 5 µM
--
compound: Cc1cccc2nc(C3c4nc[nH]c4CCN3C(=O)c3ccnn3C3CC3)oc12 (centres unmarked)
AC50: 1 to 5 µM
--
compound: CC(C)(O)c1cc(C(=O)N2CCc3[nH]cnc3C2c2nc3c(F)cccc3o2)on1 (centres unmarked)
AC50: 1 to 5 µM
--
compound: Cn1nc(C(C)(C)C)nc1C(=O)N1CCc2[nH]cnc2C1c1nc2ccccc2o1 (centres unmarked)
AC50: ≥ 5 µM
--
compound: O=C(c1cnn2cc(CN3CC(F)C3)ccc12)N1CCc2[nH]cnc2C1c1nc2cc(F)ccc2o1 (centres unmarked)
AC50: 1 to 5 µM
--
compound: CN(C)CCCOc1ccc2c(C(=O)N3CCc4[nH]cnc4C3c3nc4cc(F)ccc4o3)cnn2c1 (centres unmarked)
AC50: ≥ 5 µM
--
compound: Cc1ccc2nc(C3c4nc[nH]c4CCN3C(=O)c3nnc(-c4cn[nH]c4)o3)oc2c1 (centres unmarked)
AC50: 1 to 5 µM
--
compound: O=C(c1ccnn1C(F)F)N1CCc2[nH]cnc2C1c1nc2c(F)c(F)ccc2o1 (centres unmarked)
AC50: 1 to 5 µM
--
compound: O=C(CCc1nccs1)N1CCc2[nH]cnc2C1c1nc2ccc(F)cc2o1 (centres unmarked)
AC50: ≥ 5 µM
